# EXPERIMENTAL SYSTEM: BuChE (Equus caballus, UniProt P81908)
# Sequence (P81908 whole entry): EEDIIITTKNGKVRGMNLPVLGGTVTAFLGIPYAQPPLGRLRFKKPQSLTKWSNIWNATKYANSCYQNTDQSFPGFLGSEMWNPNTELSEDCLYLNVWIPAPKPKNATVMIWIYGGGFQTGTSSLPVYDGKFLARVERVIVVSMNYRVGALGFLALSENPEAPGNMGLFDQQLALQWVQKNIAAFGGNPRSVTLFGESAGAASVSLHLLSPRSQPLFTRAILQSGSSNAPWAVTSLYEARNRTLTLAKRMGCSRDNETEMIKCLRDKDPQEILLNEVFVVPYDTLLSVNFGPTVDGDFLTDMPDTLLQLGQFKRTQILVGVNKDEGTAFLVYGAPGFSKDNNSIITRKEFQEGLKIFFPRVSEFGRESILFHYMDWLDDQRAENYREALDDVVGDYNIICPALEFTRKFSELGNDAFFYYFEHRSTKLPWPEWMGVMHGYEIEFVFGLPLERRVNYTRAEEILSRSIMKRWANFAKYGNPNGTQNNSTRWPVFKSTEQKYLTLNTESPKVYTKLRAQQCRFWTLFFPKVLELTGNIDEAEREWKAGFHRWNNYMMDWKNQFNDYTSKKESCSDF
# ASSAY NOTES: biochemical
# Assay type: biochemical
MEASURED PROPERTY: pIC50
API: returns pIC50 as number; meaning -log10 of concentration in mol/L.

{"columns": ["COMPOUND", "pIC50"],
 "data": [
  ["C=C(C)C1OC23OC1CC(C)C2C1(C)CCC24CC25CCC(O)C(C)(C)C5CC=C4C1(C)C3O (stereo not drawn) [Compound 9, 25-anhydro-7,8-didehydrocimigenol]", 4.45]
]}

Would you kindly share the measured pIC50 for CC(=O)O[C@@H]([C@H]1C[C@@H](C)[C@H]2[C@@](O)(O1)[C@H](O)[C@@]1(C)C3=CC[C@H]4C(C)(C)[C@@H](O)CC[C@@]45C[C@@]35CC[C@]21C)C(C)(C)O [Compound 6] ?
4.04

Can you share its pIC50? I mean this compound: C[C@@H]1C[C@H]2O[C@]3(O[C@@H]2C(C)(C)O)[C@H]1[C@@]1(C)CC[C@@]24C[C@@]25CC[C@H](O)C(C)(C)[C@@H]5CC=C4[C@]1(C)[C@H]3O [Compound 5, 7,8-didehydrocimigenol]
4.22
